Target: Ribosomal protein S6 kinase alpha-3 (Homo sapiens); note: in the data inactive means no Kd found up to 30 µM
Sequence (P51812 whole entry): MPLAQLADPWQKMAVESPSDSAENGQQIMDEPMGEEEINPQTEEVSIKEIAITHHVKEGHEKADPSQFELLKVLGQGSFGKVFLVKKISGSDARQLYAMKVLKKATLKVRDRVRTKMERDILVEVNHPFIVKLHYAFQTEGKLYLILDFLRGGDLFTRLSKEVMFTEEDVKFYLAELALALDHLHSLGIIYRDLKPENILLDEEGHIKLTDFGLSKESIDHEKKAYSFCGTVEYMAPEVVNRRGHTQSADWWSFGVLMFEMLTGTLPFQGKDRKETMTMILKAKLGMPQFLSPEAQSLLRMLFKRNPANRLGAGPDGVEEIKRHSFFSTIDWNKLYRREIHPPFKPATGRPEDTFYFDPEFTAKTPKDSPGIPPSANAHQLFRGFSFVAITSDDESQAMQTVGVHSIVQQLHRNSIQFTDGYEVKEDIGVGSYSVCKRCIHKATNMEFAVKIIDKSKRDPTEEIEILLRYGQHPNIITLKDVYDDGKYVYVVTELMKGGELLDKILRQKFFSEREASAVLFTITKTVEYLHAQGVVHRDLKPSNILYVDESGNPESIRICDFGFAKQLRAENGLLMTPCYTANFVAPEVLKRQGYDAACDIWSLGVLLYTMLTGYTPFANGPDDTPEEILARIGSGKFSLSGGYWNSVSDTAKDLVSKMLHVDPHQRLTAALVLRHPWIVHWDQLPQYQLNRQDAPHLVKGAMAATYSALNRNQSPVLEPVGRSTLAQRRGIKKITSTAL
Calls of active or inactive are those of the source.
OBSERVED PROPERTY: Kd

> print(dat)
                                   compound              result
1  NC1(c2ccc(-c3nc4ccn5c(=O)[nH]nc5c4cc3-c3ccccc3)cc2)CCC1  > 30 µM (inactive)
2  O=c1[nH]ccc2cc(OC3CCNCC3)ccc12 [SAR-407899 FREE BASE]  > 30 µM (inactive)
3  O=C(Nc1nc2cccc(-c3ccc(CN4CCS(=O)(=O)CC4)cc3)n2n1)C1CC1  > 30 µM (inactive)
4  C=CC(=O)N1CCC[C@H](n2c(=O)n(-c3ccc(Oc4ccccc4)cc3)c3c(N)ncnc32)C1  > 30 µM (inactive)
5  CCS(=O)(=O)c1cccc(-c2cc(C(=O)NC3CCN(C)CC3)c(C)c3[nH]c4ncc(C)cc4c23)c1       6 µM (active)
6  C=CC(=O)Nc1cc2c(Nc3ccc(F)c(Cl)c3)ncnc2cc1C#CC(C)(C)N1CCN(C)CC1 [AV-412 FREE BASE]  > 30 µM (inactive)
7  CCNC(=O)C#Cc1ccc2c(c1)NC(=O)/C2=C(\Nc1ccc(CN(C)C)cc1)c1ccccc1   0.734 µM (active)
8  Cc1nc(NC(=O)N2CCC[C@H]2C(N)=O)sc1-c1ccnc(C(C)(C)C(F)(F)F)c1  > 30 µM (inactive)

# lookup: Nc1ncnc2c1c(-c1cccc(OCc3ccccc3)c1)cn2[C@H]1C[C@@H](CN2CCC2)C1 on Ribosomal protein S6 kinase alpha-3 (Homo sapiens), Kd = > 30 µM (inactive)

---

Listed next: entries and their corresponding Kd.
Target: Ephrin type-A receptor 1 (Homo sapiens, UniProt P21709); note: in the data inactive means no Kd found up to 30 µM
Sequence (P21709 whole entry): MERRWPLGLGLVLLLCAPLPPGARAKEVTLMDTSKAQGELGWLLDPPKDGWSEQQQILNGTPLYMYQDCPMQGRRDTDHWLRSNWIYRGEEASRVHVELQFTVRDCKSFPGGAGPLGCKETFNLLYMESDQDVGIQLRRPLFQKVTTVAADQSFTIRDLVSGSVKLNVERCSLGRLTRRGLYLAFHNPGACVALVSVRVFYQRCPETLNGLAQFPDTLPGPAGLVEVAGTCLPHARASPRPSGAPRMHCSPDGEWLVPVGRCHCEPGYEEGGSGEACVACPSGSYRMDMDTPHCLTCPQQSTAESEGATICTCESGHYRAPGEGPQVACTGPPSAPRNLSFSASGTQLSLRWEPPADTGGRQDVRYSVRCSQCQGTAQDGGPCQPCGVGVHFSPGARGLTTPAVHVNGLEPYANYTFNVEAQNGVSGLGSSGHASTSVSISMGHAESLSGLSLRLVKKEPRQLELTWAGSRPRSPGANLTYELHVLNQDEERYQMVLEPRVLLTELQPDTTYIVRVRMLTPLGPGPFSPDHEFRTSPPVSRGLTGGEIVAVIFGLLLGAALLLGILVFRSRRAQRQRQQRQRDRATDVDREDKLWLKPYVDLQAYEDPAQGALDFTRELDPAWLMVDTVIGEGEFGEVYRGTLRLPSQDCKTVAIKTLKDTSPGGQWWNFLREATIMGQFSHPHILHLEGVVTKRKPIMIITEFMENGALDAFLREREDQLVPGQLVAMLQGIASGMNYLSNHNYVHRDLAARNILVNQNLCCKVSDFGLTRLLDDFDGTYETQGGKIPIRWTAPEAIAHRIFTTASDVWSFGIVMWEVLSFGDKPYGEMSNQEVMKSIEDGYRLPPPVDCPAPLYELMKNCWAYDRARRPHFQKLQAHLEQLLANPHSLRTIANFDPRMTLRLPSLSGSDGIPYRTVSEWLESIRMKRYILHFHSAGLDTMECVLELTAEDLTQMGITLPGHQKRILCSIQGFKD
Activity calls are given as the source filed them.

Solved entries:
COMPOUND STRUCTURE STRING	Kd
CC(C)(C)c1nc(-c2cccc(NS(=O)(=O)c3c(F)cccc3F)c2F)c(-c2ccnc(N)n2)s1	0.705 µM
Cn1cnc2c(F)c(Nc3ccc(Br)cc3F)c(C(=O)NOCCO)cc21	> 30 µM (inactive)
Cc1cc(Nc2ncnc3ccc(NC4=NC(C)(C)CO4)cc23)ccc1Oc1ccn2ncnc2c1	> 30 µM (inactive)
CC(C)c1cc(CNc2nc(Nc3cc(C4CC4)[nH]n3)cc(N3CCN(C)CC3)n2)on1	0.005 µM (active)
COc1cc2c(Nc3ccc(Cl)c(Cl)c3F)ncnc2cc1OC[C@@H]1C[C@@H]2CN(C)C[C@@H]2C1	0.008 µM (active)
Cc1cc(Nc2ncc(Cl)c(Nc3ccccc3S(=O)(=O)C(C)C)n2)c(OC(C)C)cc1C1CCNCC1	> 30 µM (inactive)

# Kd measured on Ephrin type-A receptor 1 (Homo sapiens, UniProt P21709) for item C=CC(=O)N1CCC[C@H](n2c(=O)n(-c3ccc(Oc4ccccc4)cc3)c3c(N)ncnc32)C1 = > 30 µM (inactive)

Query CO[C@H]1C[C@@H]2CC[C@@H](C)[C@@](O)(O2)C(=O)C(=O)N2CCCC[C@H]2C(=O)O[C@H]([C@H](C)C[C@@H]2CC[C@@H](O)[C@H](OC)C2)CC(=O)[C@H](C)/C=C(\C)[C@@H](O)[C@@H](OC)C(=O)[C@H](C)C[C@H](C)/C=C/C=C/C=C/1C on Ephrin type-A receptor 1 (Homo sapiens, UniProt P21709); Kd returned: > 30 µM (inactive)

Field Kd (Ephrin type-A receptor 1 (Homo sapiens, UniProt P21709)), entry Cn1cc(-c2cnn3c(N)c(Br)c([C@@H]4CCCNC4)nc23)cn1 : > 30 µM (inactive)

The recorded Kd with Ephrin type-A receptor 1 (Homo sapiens, UniProt P21709) for CO[C@H]1C[C@@H]2CC[C@@H](C)[C@@](O)(O2)C(=O)C(=O)N2CCCC[C@H]2C(=O)O[C@H]([C@H](C)C[C@@H]2CC[C@@H](OC(=O)C(C)(CO)CO)[C@H](OC)C2)CC(=O)[C@H](C)/C=C(\C)[C@@H](O)[C@@H](OC)C(=O)[C@H](C)C[C@H](C)/C=C/C=C/C=C/1C was > 30 µM (inactive)
